# assayProcedure: log P (HPLC/MS data of the preparation examples)
# measurementContext: LC-MS, method [b]: pH 2.7 with 0.1% formic acid in water and acetonitrile, linear gradient 10% to 95% acetonitrile
Documented log p across a set of molecules

molecule | log p
Cn1ncnc1C(=NOCc1cccc(NC(=O)CCc2ccc(Cl)s2)n1)c1ccccc1 | 3.74^[b]

log p in this record for COc1ccc(C(=NOCc2cccc(NC(=O)C(C)C)n2)c2ncc(C(F)(F)F)cc2Cl)cc1Br : 4.73^[b]

log p in this record for CCCCSC(=O)Nc1cccc(CON=C(c2ccccc2)c2nccn2C)n1 : 2.58^[b]

log p in this record for CCCCS(=O)(=O)Nc1cccc(CON=C(c2ccccc2)c2ncnn2C)n1 : 4.21^[b]

Where these numbers come from: patent US8981111B2
